Target: Orexin/Hypocretin receptor type 1 (Homo sapiens)
Sequence (O43613 whole entry): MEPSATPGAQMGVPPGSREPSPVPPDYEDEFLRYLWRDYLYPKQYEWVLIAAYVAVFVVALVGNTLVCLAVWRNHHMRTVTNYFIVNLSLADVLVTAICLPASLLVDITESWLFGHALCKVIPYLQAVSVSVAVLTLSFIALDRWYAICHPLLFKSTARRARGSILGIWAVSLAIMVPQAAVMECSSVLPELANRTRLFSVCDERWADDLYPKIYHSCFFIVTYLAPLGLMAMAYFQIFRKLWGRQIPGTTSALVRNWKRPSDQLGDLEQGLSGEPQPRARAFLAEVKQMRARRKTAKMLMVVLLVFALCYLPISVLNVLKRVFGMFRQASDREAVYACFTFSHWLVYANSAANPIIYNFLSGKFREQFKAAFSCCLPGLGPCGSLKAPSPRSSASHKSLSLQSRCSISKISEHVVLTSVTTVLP
metric: EC50 (nM)
// units = nM; emit number, no label

Consider the following illustrative entries.
- COc1cccc(CC(=O)N(C)C2CCCc3ccc(NS(=O)(=O)c4cc(/C=C/C(=O)N(C)c5ccncc5)ccc4OC)cc32)c1 (centres undefined): 187
- COc1cccc(CC(=O)N(C)C2CCCc3ccc(NS(=O)(=O)c4cc(/C=C/C(=O)N(C)C)ccc4OC)cc32)c1 (centres undefined): 1280
- CCCCNC(=O)/C=C/c1ccc(OC)c(S(=O)(=O)Nc2ccc3c(c2)C(N(C)C(=O)Cc2cccc(OC)c2)CCC3)c1 (centres undefined): 573

Next item in the queue.
Param readout = EC50; param system = Orexin/Hypocretin receptor type 1 (Homo sapiens); param query = COc1cccc(CC(=O)N(C)C2CCCc3ccc(NS(=O)(=O)c4cc(/C=C/C(=O)Nc5cccnc5)ccc4OC)cc32)c1 (centres undefined) ; response: value
43.4
